Every entry's value here was drawn from paper PMC6631596.

- target_entity: COX-2 (Homo sapiens, UniProt P35354)
- Construct: human recombinant COX-2
- Sequence (P35354 18-604): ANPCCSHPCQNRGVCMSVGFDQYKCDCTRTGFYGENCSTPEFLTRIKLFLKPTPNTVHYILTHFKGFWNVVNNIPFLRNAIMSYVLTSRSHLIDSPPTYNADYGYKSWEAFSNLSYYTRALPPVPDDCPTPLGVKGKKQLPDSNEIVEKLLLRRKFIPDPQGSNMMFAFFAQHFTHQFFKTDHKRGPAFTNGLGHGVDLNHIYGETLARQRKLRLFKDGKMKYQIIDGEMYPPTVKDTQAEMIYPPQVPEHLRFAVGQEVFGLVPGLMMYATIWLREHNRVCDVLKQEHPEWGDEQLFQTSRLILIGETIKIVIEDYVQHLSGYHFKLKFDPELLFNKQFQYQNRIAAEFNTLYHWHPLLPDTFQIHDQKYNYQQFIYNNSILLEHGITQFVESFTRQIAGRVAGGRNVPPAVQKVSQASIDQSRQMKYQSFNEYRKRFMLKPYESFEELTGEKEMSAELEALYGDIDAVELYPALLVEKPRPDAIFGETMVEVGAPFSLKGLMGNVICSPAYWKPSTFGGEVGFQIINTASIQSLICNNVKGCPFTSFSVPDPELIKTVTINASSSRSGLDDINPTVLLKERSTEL
- assay_notes: Cayman COX inhibitor screening assay (prostaglandin ELISA)
experimental_endpoint: pIC50
Lab note — pIC50 values are minus log10 of concentrations in M.

Exercise: For COc1c(-c2ccc(O[C@@H]3O[C@H](CO)[C@@H](O)[C@H](O)[C@H]3O)c(O)c2)oc2cc(O[C@@H]3O[C@H](CO)[C@@H](O)[C@H](O)[C@H]3O)cc(O)c2c1=O , what is its reported pIC50?
Solution: 5.51
